experiment: Solubility of cyanine dye in TFP; assay type: physicochemical; conditions: in TFP at 20° C.
Assay Endpoint: Solubility

[[record]]
molecule = "CCCCN1C(=CC=CC2=[N+](C)c3ccc(S(=O)(=O)N(CC)CC)cc3C2(C)C)C(C)(C)c2c1ccc1ccccc21.F[P-](F)(F)(F)(F)F [Chemical Formula 23]"
assay_endpoint = "Solubility"
result = ">200 mg/mL"

[[record]]
molecule = "CCN1C(=CC=CC2=[N+](CC)c3ccc(S(=O)(=O)N(CC)CC)cc3C2(C)C)C(C)(C)c2c1ccc1ccccc21.[O-][Cl+3]([O-])([O-])[O-] [Chemical Formula 27]"
assay_endpoint = "Solubility"
result = ">200 mg/mL"

[[record]]
molecule = "CCCCN1C(=CC=CC2=[N+](C)c3ccc(S(=O)(=O)N(CC)CC)cc3C2(C)C)C(C)(C)c2c1ccc1ccccc21.O=[N+]([O-])c1ccc2c(c1)N=Nc1c(ccc3ccccc13)[O][Ni-]1([O]2)[O]c2ccc([N+](=O)[O-])cc2N=Nc2c(ccc3ccccc23)[O]1 [Chemical Formula 26]"
assay_endpoint = "Solubility"
result = "127 mg/mL"

[[record]]
molecule = "CCN1C(=CC=CC2=[N+](CC)c3ccc([N+](=O)[O-])cc3C2(C)C)C(C)(C)c2c1ccc1ccccc21.[O-][Cl+3]([O-])([O-])[O-] [Chemical Formula 4]"
assay_endpoint = "Solubility"
result = "126 mg/mL"

[[record]]
molecule = "CCCCN1C(=CC=CC2=[N+](CCCC)c3ccc([N+](=O)[O-])cc3C2(C)C)C(C)(C)c2c1ccc1ccccc21.[O-][Cl+3]([O-])([O-])[O-] [Chemical Formula 8]"
assay_endpoint = "Solubility"
result = "245 mg/mL"


---

Test: Decomposition rate: differential calorimetric curve (DSC), half value width
Format: physicochemical
Details: DSC, 10° C./min, nitrogen atmosphere
Method: For the cyanine dyes represented by Chemical Formulae 4, 6 and 8 of the present invention, they were in a usual manner examined for differential calorimetric curve when heated under an increasing temperature rate of 10° C./min and nitrogen atmospheric conditions using “MODEL DSC220U”, a digital thermo analyzer commercialized by Seiko Instruments Inc., Tokyo, Japan. […]
// values below are reported Decomposition peak point
Assay Endpoint: Decomposition peak point (°C)

[[record]]
compound = "CCCCN1/C(=C/C=C/C2=[N+](CCCC)c3ccccc3C2(C)C)C(C)(C)c2c1ccc1ccccc21 [Chemical Formula 33, reference compound]"
number = 297.4

[[record]]
compound = "CCCCN1C(=CC=CC2=[N+](CCCC)c3ccc([N+](=O)[O-])cc3C2(C)C)C(C)(C)c2c1ccc1ccccc21.[O-][Cl+3]([O-])([O-])[O-]"
number = 273.5

[[record]]
compound = "CCCN1C(=CC=CC2=[N+](CCC)c3ccc([N+](=O)[O-])cc3C2(C)C)C(C)(C)c2c1ccc1ccccc21.[O-][Cl+3]([O-])([O-])[O-]"
number = 285.5

[[record]]
compound = "CCN1C(=CC=CC2=[N+](CC)c3ccc([N+](=O)[O-])cc3C2(C)C)C(C)(C)c2c1ccc1ccccc21.[O-][Cl+3]([O-])([O-])[O-]"
number = 298.6


---

assay: Solubility of cyanine dye in TFP; format: physicochemical; details: in TFP at 20° C.
Decision: Solubility compared against 200 mg/mL; not below it gives YES, below it gives NO.

[[record]]
compound = "CCCCN1C(=CC=CC2=[N+](CCC)c3ccc([N+](=O)[O-])cc3C2(C)C)C(C)(C)c2c1ccc1ccccc21.[O-][Cl+3]([O-])([O-])[O-] [Chemical Formula 7]"
class_assignment = "YES"

[[record]]
compound = "CCN1C(=CC=CC2=[N+](CC)c3ccc([N+](=O)[O-])cc3C2(C)C)C(C)(C)c2ccc3ccccc3c21.[O-][Cl+3]([O-])([O-])[O-] [Chemical Formula 15]"
class_assignment = "YES"

[[record]]
compound = "CCCCN1C(=CC=CC2=[N+](C)c3ccc([N+](=O)[O-])cc3C2(C)C)C(C)(C)c2c1ccc1ccccc21.CCN(CC)c1ccc2c(c1)[O][Co-]1([O]c3ccc([N+](=O)[O-])cc3N=N2)[O]c2ccc([N+](=O)[O-])cc2N=Nc2ccc(N(CC)CC)cc2[O]1 [Chemical Formula 3]"
class_assignment = "NO"

[[record]]
compound = "CCCN1C(=CC=CC2=[N+](CCC)c3ccc([N+](=O)[O-])cc3C2(C)C)C(C)(C)c2c1ccc1ccccc21.[O-][Cl+3]([O-])([O-])[O-] [Chemical Formula 6]"
class_assignment = "NO"


---

experiment: Decomposition point by DTA and TGA; format: physicochemical; conditions: in words
Assay Endpoint: Rapidity of decomposition among Chemical Formulae 1, 4 and 6 to 8

[[record]]
record_smiles = "CN1C(=CC=CC2=[N+](C)c3ccc([N+](=O)[O-])cc3C2(C)C)C(C)(C)c2c1ccc1ccccc21"
result = "decomposed most rapidly"

[[record]]
record_smiles = "CCN1C(=CC=CC2=[N+](CC)c3ccc([N+](=O)[O-])cc3C2(C)C)C(C)(C)c2c1ccc1ccccc21.[O-][Cl+3]([O-])([O-])[O-]"
result = "decomposed most rapidly"

[[record]]
record_smiles = "CCCN1C(=CC=CC2=[N+](CCC)c3ccc([N+](=O)[O-])cc3C2(C)C)C(C)(C)c2c1ccc1ccccc21.[O-][Cl+3]([O-])([O-])[O-]"
result = "decomposed most rapidly"

[[record]]
record_smiles = "CCCCN1C(=CC=CC2=[N+](CCC)c3ccc([N+](=O)[O-])cc3C2(C)C)C(C)(C)c2c1ccc1ccccc21.[O-][Cl+3]([O-])([O-])[O-]"
result = "decomposed most rapidly"


---

Experiment: Decomposition rate: differential calorimetric curve (DSC), half value width
Format: physicochemical
Conditions: width of decomposition peak at half calorific value; DSC, 10° C./min, nitrogen
Protocol: For the cyanine dyes represented by Chemical Formulae 4, 6 and 8 of the present invention, they were in a usual manner examined for differential calorimetric curve when heated under an increasing temperature rate of 10° C./min and nitrogen atmospheric conditions using “MODEL DSC220U”, a digital thermo analyzer commercialized by Seiko Instruments Inc., Tokyo, Japan. […]
Assay Endpoint: Half value width (°C)

[[record]]
compound = "CCCCN1/C(=C/C=C/C2=[N+](CCCC)c3ccccc3C2(C)C)C(C)(C)c2c1ccc1ccccc21 [Chemical Formula 33, reference compound]"
number = 49.9

[[record]]
compound = "CCCN1C(=CC=CC2=[N+](CCC)c3ccc([N+](=O)[O-])cc3C2(C)C)C(C)(C)c2c1ccc1ccccc21.[O-][Cl+3]([O-])([O-])[O-]"
number = 13.2

[[record]]
compound = "CCN1C(=CC=CC2=[N+](CC)c3ccc([N+](=O)[O-])cc3C2(C)C)C(C)(C)c2c1ccc1ccccc21.[O-][Cl+3]([O-])([O-])[O-]"
number = 7.7

[[record]]
compound = "CCCCN1C(=CC=CC2=[N+](CCCC)c3ccc([N+](=O)[O-])cc3C2(C)C)C(C)(C)c2c1ccc1ccccc21.[O-][Cl+3]([O-])([O-])[O-]"
number = 32.2


---

assay: Light characteristics: visible absorption spectrum in methanol and as thin layer over glass; assay type: physicochemical; settings: formed into layer over glass
Parameter Maximum absorption (nm) Thin Layer: see the listing below.
Assay Endpoint: Maximum absorption (nm) Thin Layer

[[record]]
molecule = "CN1C(=CC=CC2=[N+](C)c3ccc([N+](=O)[O-])cc3C2(C)C)C(C)(C)c2c1ccc1ccccc21 [Chemical Formula 1]"
result_unit = "nm"
number = 609

[[record]]
molecule = "CCCCN1C(=CC=CC2=[N+](CCCC)c3ccc([N+](=O)[O-])cc3C2(C)C)C(C)(C)c2c1ccc1ccccc21.[O-][Cl+3]([O-])([O-])[O-] [Chemical Formula 8]"
result_unit = "nm"
number = 609

[[record]]
molecule = "CCCCN1C(=CC=CC2=[N+](CCC)c3ccc([N+](=O)[O-])cc3C2(C)C)C(C)(C)c2c1ccc1ccccc21.[O-][Cl+3]([O-])([O-])[O-] [Chemical Formula 7]"
result_unit = "nm"
number = 609

[[record]]
molecule = "CCCCN1/C(=C/C=C/C2=[N+](CCCC)c3ccc(C)cc3C2(C)C)C(C)(C)c2c1ccc1ccccc21 [Chemical Formula 34, reference compound]"
result_unit = "nm"
number = 599

[[record]]
molecule = "CCCN1C(=CC=CC2=[N+](CCC)c3ccc([N+](=O)[O-])cc3C2(C)C)C(C)(C)c2c1ccc1ccccc21.[O-][Cl+3]([O-])([O-])[O-] [Chemical Formula 6]"
result_unit = "nm"
number = 609

[[record]]
molecule = "CCN1C(=CC=CC2=[N+](CC)c3ccc([N+](=O)[O-])cc3C2(C)C)C(C)(C)c2ccc3ccccc3c21.[O-][Cl+3]([O-])([O-])[O-] [Chemical Formula 15]"
result_unit = "nm"
number = 617

[[record]]
molecule = "CCCCN1C(=CC=CC2=[N+](C)c3ccc(S(=O)(=O)N(CC)CC)cc3C2(C)C)C(C)(C)c2c1ccc1ccccc21.F[P-](F)(F)(F)(F)F [Chemical Formula 23]"
result_unit = "nm"
number = 591

[[record]]
molecule = "CCCCN1C(=CC=CC2=[N+](C)c3ccc(S(=O)(=O)N(CC)CC)cc3C2(C)C)C(C)(C)c2c1ccc1ccccc21.CCN(CC)c1ccc2c(c1)[O][Co-]1([O]c3ccc([N+](=O)[O-])cc3N=N2)[O]c2ccc([N+](=O)[O-])cc2N=Nc2ccc(N(CC)CC)cc2[O]1 [Chemical Formula 24]"
result_unit = "nm"
number = 556

[[record]]
molecule = "CCCCN1C(=CC=CC2=[N+](C)c3ccc([N+](=O)[O-])cc3C2(C)C)C(C)(C)c2c1ccc1ccccc21.CCN(CC)c1ccc2c(c1)[O][Co-]1([O]c3ccc([N+](=O)[O-])cc3N=N2)[O]c2ccc([N+](=O)[O-])cc2N=Nc2ccc(N(CC)CC)cc2[O]1 [Chemical Formula 3]"
result_unit = "nm"
number = 557

[[record]]
molecule = "CCN1C(=CC=CC2=[N+](CC)c3ccc(S(=O)(=O)N(CC)CC)cc3C2(C)C)C(C)(C)c2c1ccc1ccccc21.[O-][Cl+3]([O-])([O-])[O-] [Chemical Formula 27]"
result_unit = "nm"
number = 592

[[record]]
molecule = "CCCCN1/C(=C/C=C/C2=[N+](CCCC)c3ccccc3C2(C)C)C(C)(C)c2c1ccc1ccccc21 [Chemical Formula 33, reference compound]"
result_unit = "nm"
number = 600

[[record]]
molecule = "CCN1C(=CC=CC2=[N+](CC)c3ccc([N+](=O)[O-])cc3C2(C)C)C(C)(C)c2c1ccc1ccccc21.[O-][Cl+3]([O-])([O-])[O-] [Chemical Formula 4]"
result_unit = "nm"
number = 609

[[record]]
molecule = "CCCCN1C(=CC=CC2=[N+](C)c3ccc(S(=O)(=O)N(CC)CC)cc3C2(C)C)C(C)(C)c2c1ccc1ccccc21.O=[N+]([O-])c1ccc2c(c1)N=Nc1c(ccc3ccccc13)[O][Ni-]1([O]2)[O]c2ccc([N+](=O)[O-])cc2N=Nc2c(ccc3ccccc23)[O]1 [Chemical Formula 26]"
result_unit = "nm"
number = 594

